- Test system: M. tuberculosis H37Rv poly-g-GFP
- experimental-details: microbe, parasite or virus in culture
- Type: cell-based
- experimental-conditions: Mycobacterium tuberculosis, 336 h, read-out: MIC Mtb H37Rv-poly-g-GFP, turbidity read-out
// reported MIC for each item listed

[
  {
    "compound": "CC[C@H]1/C=C(\\C)[C@@H](O)C/C=C/C=C(\\CNCc2nnc(-c3ccccc3)s2)C(=O)O[C@H]([C@@H](C)O)C/C=C(C)/C=C(\\C)[C@@H]1O[C@@H]1OC(C)(C)[C@@H](OC(=O)C(C)C)[C@H](O)[C@@H]1O [compound 20]",
    "unit-text": "µg/mL",
    "comparison-operator": "=",
    "MIC": 2
  },
  {
    "compound": "CCc1c(Cl)c(O)c(Cl)c(O)c1C(=O)O[C@H]1[C@H](O)[C@H](OC)[C@H](OC/C2=C\\C=C\\C[C@H](O)/C(C)=C/[C@H](CC)[C@@H](O[C@@H]3OC(C)(C)[C@@H](OC(=O)C(C)C)[C@H](O)[C@@H]3O)/C(C)=C/C(C)=C/C[C@@H]([C@@H](C)O)OC2=O)O[C@@H]1C [Fdx, fidaxomicin, reference compound]",
    "unit-text": "µg/mL",
    "comparison-operator": "=",
    "MIC": 0.5
  },
  {
    "compound": "CC[C@H]1/C=C(\\C)[C@@H](O)C/C=C/C=C(\\CNCc2nnc(-c3ccccc3)o2)C(=O)O[C@H]([C@@H](C)O)C/C=C(C)/C=C(\\C)[C@@H]1O[C@@H]1OC(C)(C)[C@@H](OC(=O)C(C)C)[C@H](O)[C@@H]1O [compound 16]",
    "unit-text": "µg/mL",
    "comparison-operator": "=",
    "MIC": 4
  },
  {
    "compound": "CC[C@H]1/C=C(\\C)[C@@H](O)C/C=C/C=C(\\CN(C)Cc2nnc(-c3ccccc3)o2)C(=O)O[C@H]([C@@H](C)O)C/C=C(C)/C=C(\\C)[C@@H]1O[C@@H]1OC(C)(C)[C@@H](OC(=O)C(C)C)[C@H](O)[C@@H]1O [compound 7]",
    "unit-text": "µg/mL",
    "comparison-operator": "=",
    "MIC": 8
  },
  {
    "compound": "CC[C@H]1/C=C(\\C)[C@@H](O)C/C=C/C=C(\\CNCc2nnc(-c3cccc(O)c3O)o2)C(=O)O[C@H]([C@@H](C)O)C/C=C(C)/C=C(\\C)[C@@H]1O[C@@H]1OC(C)(C)[C@@H](OC(=O)C(C)C)[C@H](O)[C@@H]1O [compound 22]",
    "unit-text": "µg/mL",
    "comparison-operator": "=",
    "MIC": 2
  },
  {
    "compound": "CC[C@H]1/C=C(\\C)[C@@H](O)C/C=C/C=C(\\CNCc2nnc(-c3cc(Cl)cc(Cl)c3)o2)C(=O)O[C@H]([C@@H](C)O)C/C=C(C)/C=C(\\C)[C@@H]1O[C@@H]1OC(C)(C)[C@@H](OC(=O)C(C)C)[C@H](O)[C@@H]1O [compound 21]",
    "unit-text": "µg/mL",
    "comparison-operator": "=",
    "MIC": 2
  },
  {
    "compound": "CO[C@H]1/C=C/O[C@@]2(C)Oc3c(C)c(O)c4c(O)c(c(/C=N/N5CCN(C)CC5)c(O)c4c3C2=O)NC(=O)/C(C)=C\\C=C\\[C@H](C)[C@H](O)[C@@H](C)[C@@H](O)[C@@H](C)[C@H](OC(C)=O)[C@@H]1C [Rif, Rifampicin, reference compound]",
    "unit-text": "µg/mL",
    "comparison-operator": "<",
    "MIC": 0.12
  },
  {
    "compound": "CC[C@H]1/C=C(\\C)[C@@H](O)C/C=C/C=C(\\CNCc2nnc(-c3ccc(OC)c(OC)c3Cl)o2)C(=O)O[C@H]([C@@H](C)O)C/C=C(C)/C=C(\\C)[C@@H]1O[C@@H]1OC(C)(C)[C@@H](OC(=O)C(C)C)[C@H](O)[C@@H]1O [compound 18]",
    "unit-text": "µg/mL",
    "comparison-operator": "=",
    "MIC": 4
  }
]
